SYSTEM UNDER TEST: acetylcholine receptor
PROCEDURE DETAILS: SPR, AchR immobilised on chip, peptide 10 uM
MEASURE NAME: Binding affinity (RU)
Answer format: numeric, RU implied, no suffix.

Solved cases below.
Give recorded Binding affinity (RU). KEEEK [5mer-1137]
22

Give recorded Binding affinity (RU). RPTKR [5mer-1105]
33

Give recorded Binding affinity (RU). RKVQSK [6mer-1-251]
133

Further cases:
Give recorded Binding affinity (RU). RFMMR [5mer-835]
14

Give recorded Binding affinity (RU). KMNIK [5mer-1119]
19

Give recorded Binding affinity (RU). RITMR [5mer-814]
11
